Reported melting point values are given for each entry in this list.

Below, 5 compounds whose answers are already recorded.
# structureNotation, resultType, dataValue
records = [
    ("Cc1cc(Cl)cc(C(=O)NC(C)(C)C)c1NC(=O)c1cc(C(F)(F)F)nn1-c1ncccc1Cl", "melting point", "223 to 225 °C"),
    ("CN(C)C(=O)c1cc(Cl)cc(Cl)c1NC(=O)c1cc(Br)nn1-c1ncccc1Cl", "melting point", "216 to 218 °C"),
    ("CC(C)NC(=O)c1cc(Cl)cc(Cl)c1NC(=O)c1cc(Cl)nn1-c1ncccc1Cl", "melting point", "197 to 199 °C"),
    ("CC(C)(C)NC(=O)c1cc(Br)cc(Br)c1NC(=O)c1cc(C(F)(F)F)nn1-c1ncccc1Cl", "melting point", "246 to 247 °C"),
    ("Cc1cc(Cl)cc(C(=O)NC(C)(C)C)c1NC(=O)c1cc(Br)nn1-c1ncccc1Cl", "melting point", "159 to 161 °C"),
]

Lookup: Indicate its recorded melting point; the compound in question is "Cc1cc(Cl)cc(C(=O)NC(C)(C)C)c1NC(=O)c1cc(Cl)nn1-c1ncccc1Cl"
Found: 163 to 165 °C

Lookup: Indicate its recorded melting point; the compound in question is "Cc1cc(Cl)cc(C(=O)NC(C)C)c1NC(=O)c1cc(OCC(F)(F)F)nn1-c1ncccc1Cl"
Found: 217 to 218 °C

Lookup: Indicate its recorded melting point; the compound in question is "CNC(=O)c1cc(I)cc(C)c1NC(=O)c1cc(C(F)(F)F)nn1-c1ncccc1Cl"
Found: 199 to 200 °C

Lookup: Indicate its recorded melting point; the compound in question is "Cc1cc(I)cc(C(=O)NC(C)C)c1NC(=O)c1cc(Cl)nn1-c1ncccc1Cl"
Found: 189 to 190 °C

Lookup: Indicate its recorded melting point; the compound in question is "CCNC(=O)c1cc(Br)cc(C)c1NC(=O)c1cc(C(F)(F)F)nn1-c1ncccc1Cl"
Found: 192 to 193 °C

Lookup: Indicate its recorded melting point; the compound in question is "CCNC(=O)c1cc(Cl)cc(C)c1NC(=O)c1cc(C(F)(F)F)nn1-c1ncccc1Cl"
Found: 163 to 164 °C

Lookup: Indicate its recorded melting point; the compound in question is "CCNC(=O)c1cc(Br)cc(Br)c1NC(=O)c1cc(C(F)(F)F)nn1-c1ncccc1Cl"
Found: 188 to 189 °C

Lookup: Indicate its recorded melting point; the compound in question is "CNC(=O)c1cc(Br)cc(Br)c1NC(=O)c1cc(C(F)(F)F)nn1-c1ncccc1Cl"
Found: 162 to 163 °C

Lookup: Indicate its recorded melting point; the compound in question is "CCNC(=O)c1cc(Cl)cc(Cl)c1NC(=O)c1cc(Br)nn1-c1ncccc1Cl"
Found: 214 to 215 °C

Lookup: Indicate its recorded melting point; the compound in question is "CNC(=O)c1cc(I)cc(C)c1NC(=O)c1cc(Cl)nn1-c1ncccc1Cl"
Found: 233 to 234 °C

Lookup: Indicate its recorded melting point; the compound in question is "Cc1cc(Br)cc(C(=O)NC(C)C)c1NC(=O)c1cc(Br)nn1-c1ncccc1Cl"
Found: 185 to 187 °C

Lookup: Indicate its recorded melting point; the compound in question is "CN(C)C(=O)c1cc(Br)cc(Br)c1NC(=O)c1cc(C(F)(F)F)nn1-c1ncccc1Cl"
Found: 228 to 229 °C

Lookup: Indicate its recorded melting point; the compound in question is "Cc1cc(Br)cc(C(=O)NC(C)(C)C)c1NC(=O)c1cc(Br)nn1-c1ncccc1Cl"
Found: 215 to 221 °C

Lookup: Indicate its recorded melting point; the compound in question is "CNC(=O)c1cc(Br)cc(Br)c1NC(=O)c1cc(Cl)nn1-c1ncccc1Cl"
Found: 188 to 190 °C
